Field: Ki. Provide a value for each of the compounds that follow.
Biological target: D(1A) dopamine receptor (Homo sapiens, UniProt P21728)
Sequence (P21728 whole entry): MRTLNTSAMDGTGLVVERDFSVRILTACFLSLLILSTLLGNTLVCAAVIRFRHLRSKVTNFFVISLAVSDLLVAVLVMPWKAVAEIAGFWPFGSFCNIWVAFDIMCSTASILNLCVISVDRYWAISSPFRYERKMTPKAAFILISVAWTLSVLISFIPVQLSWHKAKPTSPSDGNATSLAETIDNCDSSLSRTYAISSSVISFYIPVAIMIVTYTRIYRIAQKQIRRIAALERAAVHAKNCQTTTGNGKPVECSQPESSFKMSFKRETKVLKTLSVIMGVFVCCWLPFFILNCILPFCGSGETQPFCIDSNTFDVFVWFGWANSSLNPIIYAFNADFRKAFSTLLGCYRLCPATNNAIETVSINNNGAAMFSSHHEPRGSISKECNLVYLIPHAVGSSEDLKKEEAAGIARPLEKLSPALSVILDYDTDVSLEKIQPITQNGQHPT
Experiment: Displacement of [3H]SCH 23390 from dopamine D1 receptor expressed in CHO cells
Quick reminder: number only, in nM, skip the unit.

Any idea what its Ki is? The compound is CN1CCN(C2=Nc3cc(Cl)ccc3N(NC(=O)c3cc(F)ccc3C(F)(F)F)c3ccc(Cl)cc32)CC1 24

I am curious: what Ki value has been reported for CC(C)N1CCN(C2=Nc3cc(Cl)ccc3N(NC(=O)c3ccccc3Cl)c3ccccc32)CC1 ? 191

Which Ki is reported for this compound? COc1cccc(C(=O)NN2c3ccccc3N=C(N3CCN(C)CC3)c3cc(Cl)ccc32)c1 86

What Ki value was documented for this compound, FC1(F)Oc2cccc(CN3CCN(C4=Nc5cc(Cl)ccc5Nc5ccccc54)CC3)c2O1 ? 3110

Value lookup for Ki; key = CN1CCN(C2=Nc3cc(Cl)ccc3N(NC(=O)c3ccc4c(c3)OCO4)c3ccccc32)CC1 56

Please look up its Ki: CN1CCN(C2=Nc3cc(Cl)ccc3N(NC(=O)c3ccncc3)c3ccccc32)CC1 86

Query: Ki; subject: CN1CCN(C2=Nc3ccccc3N(NC(=O)c3ccccc3I)c3ccc(Cl)cc32)CC1 7

Quick one: Ki for CN1CCN(C2=Nc3cc(Cl)ccc3N(NC(=O)c3cccc(C#N)c3)c3ccc(Cl)cc32)CC1 ? 47

Look at this compound and give its reported Ki. Cc1ccc(S(=O)(=O)N2c3ccc(Cl)cc3N=C(N3CCN(C)CC3)c3ccccc32)cc1 65
